assay: pH of aqueous solution of solubilizing compound mixed with oleic acid; format: physicochemical; conditions: solubilizing compound in water with 0.833 mol equivalents of oleic acid
Where a name gives a salt, the structure may show the parent alone.
The threshold is inclusive: pH of exactly 10 counts as TRUE; values below receive FALSE.

Task: Determine whether measured pH meets or exceeds 10 for CN(C)C(=N)NC(=N)N.Cl [1,1-Dimethylbiguanide hydrochloride, reference compound]
Result: FALSE

Task: Determine whether measured pH meets or exceeds 10 for N=C(N)NCCC[C@H](NC(=O)[C@@H](N)Cc1ccc(O)cc1)C(=O)O [Tyr-Arg (Kyotorphin acetate), L-tyrosyl-L-arginine]
Result: FALSE

Task: Determine whether measured pH meets or exceeds 10 for `CC(=N)NCCCC[C@H](N)C(=O)O`
Result: FALSE

Task: Determine whether measured pH meets or exceeds 10 for COC(=O)[C@H](N)CCCNC(=N)N.Cl.Cl [D-arginine methyl ester dihydrochloride]
Result: TRUE

Task: Determine whether measured pH meets or exceeds 10 for CN/C(=N/CCSCc1nc[nH]c1C)NC#N [Cimetidine, reference compound]
Result: FALSE

Task: Determine whether measured pH meets or exceeds 10 for N=C(N)N [Guanidinehydrochloride]
Result: TRUE

Task: Determine whether measured pH meets or exceeds 10 for C[C@@H](N[C@@H](CCCN=C(N)N)C(=O)O)C(=O)O [D-(+)-Octopine]
Result: FALSE

Task: Determine whether measured pH meets or exceeds 10 for `NC(=NCCC[C@H](N)C(=O)O)N[N+](=O)[O-]`
Result: TRUE

Task: Determine whether measured pH meets or exceeds 10 for `NCCCC[C@H](N)C(=O)O`
Result: FALSE

Task: Determine whether measured pH meets or exceeds 10 for NC(=NCC[C@H](N)C(=O)O)NO [N-ω-Hydroxy-L-norarginine]
Result: FALSE

Task: Determine whether measured pH meets or exceeds 10 for CC(=O)O.CNC(=N)NCCC[C@H](N)C(=O)O [N-ω-monomethyl-L-arginine acetate]
Result: FALSE

Task: Determine whether measured pH meets or exceeds 10 for Cl.N[C@@H](Cc1c[nH]cn1)C(=O)O.O [Histidine hydrochloride monohydrate]
Result: FALSE

Task: Determine whether measured pH meets or exceeds 10 for [H]/N=C(\N/C(=N/[H])Nc1ccc(Cl)cc1)NC(C)C [Proguanil hydrochloride, 1-(4-chlorphenyl)-5-isopropylbi-guanide, reference compound]
Result: FALSE

Task: Determine whether measured pH meets or exceeds 10 for NC(=O)CC[C@H](N)C(=O)O [L-Glutamin, reference compound]
Result: FALSE

Task: Determine whether measured pH meets or exceeds 10 for `N=C(N)NCCC(=O)O`
Result: TRUE

* * *

Can you tell me Mean Size by Intensity for the items I'm about to list?
assay: Dynamic laser light scattering (DLS) of oleic acid micro-/nanoemulsions; format: physicochemical; settings: DLS, emulsion with oleic acid
Please state the figure in nm; there is no need to write the unit.

Task: Give its Mean Size by Intensity value. Item: NC(=NCCC[C@H](N)C(=O)O)N[N+](=O)[O-] [N-ω-Nitro-L-arginine]
Result: 85.5

Task: Give its Mean Size by Intensity value. Item: `Cl.N=C(N)NC[C@H](N)C(=O)O`
Result: 113

Task: Give its Mean Size by Intensity value. Item: CC(=O)NCC(=O)O.CC(=O)NCC(=O)O.N=C(N)c1ccc(N=NNc2ccc(C(=N)N)cc2)cc1 [Diminazene aceturate (basic), Diminazene aceturate, reference compound]
Result: 426

Task: Give its Mean Size by Intensity value. Item: CC(=N)NCCCC[C@H](N)C(=O)O [L-NIL]
Result: 349

Task: Give its Mean Size by Intensity value. Item: `Cc1c[nH]cn1`
Result: 224

Task: Give its Mean Size by Intensity value. Item: NC(N)=O [Urea, reference compound]
Result: 341

Task: Give its Mean Size by Intensity value. Item: CN/C(=N/CCSCc1nc[nH]c1C)NC#N [Cimetidine, reference compound]
Result: 239

Task: Give its Mean Size by Intensity value. Item: NC(N)=NCCCC[C@H](N)C(=O)O [H-Homoarg-OH]
Result: 107

Task: Give its Mean Size by Intensity value. Item: Cc1ccccc1NC(=N)NC(=N)N [1-(o-Tolyl)biguanide]
Result: 850

Task: Give its Mean Size by Intensity value. Item: NCCCC[C@H](N)C(=O)O [L-Lysine]
Result: 133

Task: Give its Mean Size by Intensity value. Item: C[C@@H](N[C@@H](CCCN=C(N)N)C(=O)O)C(=O)O [D-(+)-Octopine]
Result: 435

Task: Give its Mean Size by Intensity value. Item: CN/C(=N\[N+](=O)[O-])NCc1cnc(Cl)s1 [Clothianidine]
Result: 153

Task: Give its Mean Size by Intensity value. Item: CN(C)C(N)=NCCC[C@H](N)C(=O)O.Cl.Cl [NG,NG-Dimethylarginine dihydrochloride]
Result: 22.9

Task: Give its Mean Size by Intensity value. Item: Cl.N[C@@H](Cc1c[nH]cn1)C(=O)O.O [Histidine hydrochloride monohydrate]
Result: 647
